Reported hERG current change (%, negative = inhibition) at 10uM values for a set of compounds
molecular target: human ether-à-go-go-related gene (hERG) potassium channel (human, UniProt Q12809); assay: primary screen, population patch clamp on CHO cells stably expressing hERG; higher = less effect of the substance;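 also: peak tail current of the secondary pulse compared with the same well before compound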
Sequence (Q12809 whole entry, looked up): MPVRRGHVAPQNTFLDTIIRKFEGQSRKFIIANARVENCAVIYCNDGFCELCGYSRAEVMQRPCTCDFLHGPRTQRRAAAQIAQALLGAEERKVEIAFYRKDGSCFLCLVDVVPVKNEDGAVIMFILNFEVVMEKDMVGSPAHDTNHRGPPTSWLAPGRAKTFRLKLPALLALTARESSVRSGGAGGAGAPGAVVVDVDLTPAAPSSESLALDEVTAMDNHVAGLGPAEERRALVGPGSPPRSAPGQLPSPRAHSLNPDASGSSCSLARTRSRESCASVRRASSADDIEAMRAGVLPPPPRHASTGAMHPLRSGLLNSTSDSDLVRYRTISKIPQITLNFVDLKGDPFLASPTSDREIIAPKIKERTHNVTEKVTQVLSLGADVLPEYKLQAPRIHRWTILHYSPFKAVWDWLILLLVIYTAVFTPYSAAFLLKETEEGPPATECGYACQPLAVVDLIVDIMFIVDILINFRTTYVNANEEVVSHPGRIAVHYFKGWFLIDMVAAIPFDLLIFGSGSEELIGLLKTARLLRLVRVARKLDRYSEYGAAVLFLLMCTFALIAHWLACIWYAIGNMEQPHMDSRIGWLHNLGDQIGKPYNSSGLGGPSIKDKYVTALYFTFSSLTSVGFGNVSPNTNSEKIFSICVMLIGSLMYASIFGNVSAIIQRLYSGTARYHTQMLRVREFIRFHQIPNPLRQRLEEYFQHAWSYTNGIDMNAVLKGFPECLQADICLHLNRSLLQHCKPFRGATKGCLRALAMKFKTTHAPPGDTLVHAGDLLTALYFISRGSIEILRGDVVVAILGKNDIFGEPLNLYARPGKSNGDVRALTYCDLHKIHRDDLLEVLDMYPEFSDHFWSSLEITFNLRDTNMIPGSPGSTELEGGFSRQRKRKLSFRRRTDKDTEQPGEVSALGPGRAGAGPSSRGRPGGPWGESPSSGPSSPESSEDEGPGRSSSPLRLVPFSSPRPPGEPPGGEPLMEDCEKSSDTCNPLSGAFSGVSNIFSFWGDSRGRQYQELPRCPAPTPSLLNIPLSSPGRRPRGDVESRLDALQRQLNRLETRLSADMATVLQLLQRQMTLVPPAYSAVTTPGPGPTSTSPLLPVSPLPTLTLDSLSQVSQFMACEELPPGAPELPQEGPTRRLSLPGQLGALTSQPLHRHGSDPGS
In all, about 310,000 compounds went through this assay and about 14,000 (4.5%) showed an effect of 50% or more. Effects have a minus sign here. The sample holds strong results, similar compounds and a random draw of the others, so the mix is not that of the screen.
PROPERTY LABEL: hERG current change (%, negative = inhibition) at 10uM (%)

{"COMPOUND": "CCOc1ccc(CN(C)CCc2ccccn2)cc1.O=C(O)C(=O)O", "NUMERIC VALUE": -77.8}
{"COMPOUND": "COc1ccc(C(=O)Nc2ccc(NC(=O)c3cccs3)cc2)cc1[N+](=O)[O-]", "NUMERIC VALUE": 5.49}
{"COMPOUND": "COc1cc(OC)c(OC)cc1CN(C)CCc1ccccn1.O=C(O)C(=O)O", "NUMERIC VALUE": -11.2}
{"COMPOUND": "CN(c1ccccc1)S(=O)(=O)c1ccc(Cl)c(C(=O)NCCc2c[nH]c3ccccc23)c1", "NUMERIC VALUE": -15.8}
{"COMPOUND": "COc1cc(CN(C)CCc2ccccn2)cc(OC)c1OC.O=C(O)C(=O)O", "NUMERIC VALUE": -11.6}
{"COMPOUND": "Cc1cccc(NC(=O)c2cccc(N3C(=O)C4C5CCC(C5)C4C3=O)c2)c1C (stereo not shown)", "NUMERIC VALUE": -7.75}
{"COMPOUND": "CSc1ccc(CN(C)CCc2ccccn2)cc1.O=C(O)C(=O)O", "NUMERIC VALUE": -64.4}
{"COMPOUND": "N#Cc1ccc(-c2nc3ccccc3nc2-c2ccccc2)cc1C#N", "NUMERIC VALUE": 21.7}
{"COMPOUND": "CC(C)(C)C(=O)Nc1sc2c(c1C#N)CCCCC2", "NUMERIC VALUE": 2.28}
{"COMPOUND": "COc1ccc(CCNS(=O)(=O)c2ccc(Br)s2)cc1", "NUMERIC VALUE": -5.73}

---

target: human ether-à-go-go-related gene (hERG) potassium channel (human, UniProt Q12809); test: primary screen, population patch clamp on CHO cells stably expressing hERG; higher = less effect of the substance;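 also: peak tail current of the secondary pulse compared with the same well before compound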
About 14,000 (4.5%) of roughly 310,000 compounds showed an effect of 50% or more. The effect is printed as a negative number. The entries come from a sample that favours strong results as a whole.
PROPERTY LABEL: hERG current change (%, negative = inhibition) at 10uM (%)

{"COMPOUND": "COc1ccc(/C=N/Nc2nnc(Cc3ccccc3)c(=O)[nH]2)cc1OC", "NUMERIC VALUE": -61.4}
{"COMPOUND": "CNS(=O)(=O)c1ccc(NC(=S)Nc2ccc3c(c2)OCO3)cc1", "NUMERIC VALUE": 8.16}
{"COMPOUND": "CCc1ccc(OCC(=O)N2CCN(c3ccccc3F)CC2)cc1", "NUMERIC VALUE": 20.2}
{"COMPOUND": "CC(=O)c1ccc(N2CCN(C(=O)CN3C(=O)NC4(CCCCC4)C3=O)CC2)c(F)c1", "NUMERIC VALUE": 0.416}
{"COMPOUND": "COc1ccc(/C=N/Nc2nnc(Cc3ccccc3)c(=O)[nH]2)cc1", "NUMERIC VALUE": -15.1}
{"COMPOUND": "COc1ccc(/C=N/Nc2nnc(Cc3ccc(OC)c(OC)c3)c(=O)[nH]2)cc1OC", "NUMERIC VALUE": 18.9}
{"COMPOUND": "COc1ccc(CNC(=O)COC(=O)c2ccc(OCc3c(C)noc3C)cc2)cc1OC", "NUMERIC VALUE": 13.8}
{"COMPOUND": "CC(=O)c1ccc(N2CCN(C(=O)COc3ccccc3F)CC2)c(F)c1", "NUMERIC VALUE": -39.7}
{"COMPOUND": "CCC(=O)c1ccc(N2CCCCCC2)c(F)c1", "NUMERIC VALUE": 4.04}
{"COMPOUND": "CC(NS(=O)(=O)c1ccc(NC(=O)N2CCCCC2)cc1)c1ccccc1 (stereo not shown)", "NUMERIC VALUE": 3.56}
